All figures here come from ChEMBL document CHEMBL1137832.

Target: UniProt Q72874
Assay: inhibitory concentration against HIV-1 protease from PI-resistant clinical isolate (V18)
Hi there, I'd appreciate the recorded IC50 for every entry that follows.
One number for each entry, in nM.

CCCc1nnc(C[C@H](C[C@H](O)CN2CCN(C(C)(C)c3ncc(-c4ccc(F)cc4)o3)C[C@H]2C(=O)NCC(F)(F)F)C(=O)N[C@H]2CCOC[C@H]2O)o1	0.19

Need IC50 for each of these molecules.
1. CC(C)(c1ncc(-c2ccc(Cl)cc2)o1)N1CCN(C[C@@H](O)C[C@@H](Cc2nnc(-c3ccccc3)o2)C(=O)N[C@H]2CCOC[C@H]2O)[C@H](C(=O)NCC(F)(F)F)C1
2. CC(C)(c1ncc(-c2ccc(F)cc2)o1)N1CCN(C[C@@H](O)C[C@@H](Cc2nnco2)C(=O)N[C@H]2CCOC[C@H]2O)[C@H](C(=O)NCC(F)(F)F)C1
3. COc1cncc(-c2cnc(C(C)(C)N3CCN(C[C@@H](O)C[C@@H](Cc4nnc(C)o4)C(=O)N[C@H]4CCOC[C@H]4O)[C@H](C(=O)NCC(F)(F)F)C3)o2)c1
4. O=C(N[C@H]1CCOC[C@H]1O)[C@H](Cc1nnco1)C[C@H](O)CN1CCN(Cc2ccc(-c3ccc(Cl)cc3)o2)C[C@H]1C(=O)NCC(F)(F)F
5. COc1cncc(-c2cnc(C(C)(C)N3CCN(C[C@@H](O)C[C@@H](Cc4nnco4)C(=O)N[C@H]4CCOC[C@H]4O)[C@H](C(=O)NCC(F)(F)F)C3)o2)c1

Ans:
1: 0.18; 2: 0.06; 3: 15; 4: 0.09; 5: 7.4

Batch: IC50 for all items listed.
1. CCCc1nnc(C[C@H](C[C@H](O)CN2CCN(C(C)(C)c3ncc(-c4ccc(Cl)cc4)o3)C[C@H]2C(=O)NCC(F)(F)F)C(=O)N[C@H]2CCOC[C@H]2O)o1
2. Cc1nnc(C[C@H](C[C@H](O)CN2CCN(C(C)(C)c3ncc(-c4ccc(F)cc4)o3)C[C@H]2C(=O)NCC(F)(F)F)C(=O)N[C@H]2CCOC[C@H]2O)o1
3. CC(C)(c1ncc(-c2ccc(Cl)cc2)o1)N1CCN(C[C@@H](O)C[C@@H](Cc2nnco2)C(=O)N[C@H]2CCOC[C@H]2O)[C@H](C(=O)NCC(F)(F)F)C1
4. Cc1nnc(C[C@H](C[C@H](O)CN2CCN(C(C)(C)c3ncc(-c4ccc(Cl)cc4)o3)C[C@H]2C(=O)NCC(F)(F)F)C(=O)N[C@H]2CCOC[C@H]2O)o1

Ans:
1: 0.18; 2: 0.19; 3: 0.04; 4: 0.06

###

Target: Human immunodeficiency virus type 1 protease (Human immunodeficiency virus 1, UniProt Q72874)
Assay: Inhibitory concentration against HIV-1 protease (NL4-3)
outcome-measure: pIC50
Numbers only, as −log10 of the molar value.

Batch lookup, pIC50 per entry.
1. CCCc1nnc(C[C@H](C[C@H](O)CN2CCN(C(C)(C)c3ncc(-c4ccc(F)cc4)o3)C[C@H]2C(=O)NCC(F)(F)F)C(=O)N[C@H]2CCOC[C@H]2O)o1
2. Cc1nnc(C[C@H](C[C@H](O)CN2CCN(C(C)(C)c3ncc(-c4ccc(F)cc4)o3)C[C@H]2C(=O)NCC(F)(F)F)C(=O)N[C@H]2CCOC[C@H]2O)o1
3. CC(C)(c1ncc(-c2ccc(F)cc2)o1)N1CCN(C[C@@H](O)C[C@@H](Cc2nnc(-c3ccccc3)o2)C(=O)N[C@H]2CCOC[C@H]2O)[C@H](C(=O)NCC(F)(F)F)C1

Ans:
1. 11.00
2. 10.70
3. 10.70

###

Assign IC50 to each entry below.
Biological target: Human immunodeficiency virus type 1 protease (Human immunodeficiency virus 1)
Assay: Inhibitory concentration against HIV-1 protease (NL4-3)
Numbers only, in pM.

Consider the reported IC50 for these compounds:
CC(C)(c1ncc(-c2ccc(F)cc2)o1)N1CCN(C[C@@H](O)C[C@@H](Cc2nnco2)C(=O)N[C@H]2CCOC[C@H]2O)[C@H](C(=O)NCC(F)(F)F)C1	20
O=C(N[C@H]1CCOC[C@H]1O)[C@H](Cc1nnc(-c2ccccc2)o1)C[C@H](O)CN1CCN(Cc2ccc(-c3ccc(Cl)cc3)o2)C[C@H]1C(=O)NCC(F)(F)F	10

Report IC50 for each item below.
1. O=C(N[C@H]1CCOC[C@H]1O)[C@H](Cc1nnco1)C[C@H](O)CN1CCN(Cc2ccc(-c3ccc(Cl)cc3)o2)C[C@H]1C(=O)NCC(F)(F)F
2. COc1cncc(-c2cnc(C(C)(C)N3CCN(C[C@@H](O)C[C@@H](Cc4nnc(-c5ccccc5)o4)C(=O)N[C@H]4CCOC[C@H]4O)[C@H](C(=O)NCC(F)(F)F)C3)o2)c1
3. COc1cncc(-c2cnc(C(C)(C)N3CCN(C[C@@H](O)C[C@@H](Cc4nnc(C)o4)C(=O)N[C@H]4CCOC[C@H]4O)[C@H](C(=O)NCC(F)(F)F)C3)o2)c1

Ans:
[10, 480, 400]

###

Test system: MT4
Test: Concentration required to inhibit spread of native HIV-1(Q-60) protease obtained from PI-resistant clinical isolate in MT-4 human T-lymphoid cells
Type: functional
Settings: read-out: CIC95
outcome-measure: IC95 (nM)
Answers are plain numbers, in nM.

Some solved cases for reference:
COc1cncc(-c2cnc(C(C)(C)N3CCN(C[C@@H](O)C[C@@H](Cc4nnc(-c5ccccc5)o4)C(=O)N[C@H]4CCOC[C@H]4O)[C@H](C(=O)NCC(F)(F)F)C3)o2)c1	500
CCCc1nnc(C[C@H](C[C@H](O)CN2CCN(Cc3ccc(-c4ccc(Cl)cc4)o3)C[C@H]2C(=O)NCC(F)(F)F)C(=O)N[C@H]2CCOC[C@H]2O)o1	16
CC(C)(c1ncc(-c2ccc(F)cc2)o1)N1CCN(C[C@@H](O)C[C@@H](Cc2nnc(-c3ccccc3)o2)C(=O)N[C@H]2CCOC[C@H]2O)[C@H](C(=O)NCC(F)(F)F)C1	16
O=C(N[C@H]1CCOC[C@H]1O)[C@H](Cc1nnc(-c2ccccc2)o1)C[C@H](O)CN1CCN(Cc2ccc(-c3ccc(Cl)cc3)o2)C[C@H]1C(=O)NCC(F)(F)F	63
Cc1nnc(C[C@H](C[C@H](O)CN2CCN(Cc3ccc(-c4ccc(Cl)cc4)o3)C[C@H]2C(=O)NCC(F)(F)F)C(=O)N[C@H]2CCOC[C@H]2O)o1	31
CC(C)(c1ncc(-c2ccc(Cl)cc2)o1)N1CCN(C[C@@H](O)C[C@@H](Cc2nnco2)C(=O)N[C@H]2CCOC[C@H]2O)[C@H](C(=O)NCC(F)(F)F)C1	31
CCCc1nnc(C[C@H](C[C@H](O)CN2CCN(C(C)(C)c3ncc(-c4cncc(OC)c4)o3)C[C@H]2C(=O)NCC(F)(F)F)C(=O)N[C@H]2CCOC[C@H]2O)o1	500
Cc1nnc(C[C@H](C[C@H](O)CN2CCN(C(C)(C)c3ncc(-c4ccc(F)cc4)o3)C[C@H]2C(=O)NCC(F)(F)F)C(=O)N[C@H]2CCOC[C@H]2O)o1	31

Record IC95 per entry; entries follow.
1. CC(C)(c1ncc(-c2ccc(F)cc2)o1)N1CCN(C[C@@H](O)C[C@@H](Cc2nnco2)C(=O)N[C@H]2CCOC[C@H]2O)[C@H](C(=O)NCC(F)(F)F)C1
2. CC(C)(c1ncc(-c2ccc(Cl)cc2)o1)N1CCN(C[C@@H](O)C[C@@H](Cc2nnc(-c3ccccc3)o2)C(=O)N[C@H]2CCOC[C@H]2O)[C@H](C(=O)NCC(F)(F)F)C1

Ans:
[31, 16]

###

Tested on: MT4
Test: Concentration required to inhibit spread of native HIV-1(Q-60) protease obtained from PI-resistant clinical isolate in MT-4 human T-lymphoid cells
Format: functional
Conditions: read-out: CIC95
outcome-measure: IC95

I would be grateful if you could provide IC95 for each of the following entries.
1. O=C(N[C@H]1CCOC[C@H]1O)[C@H](Cc1nnco1)C[C@H](O)CN1CCN(Cc2ccc(-c3ccc(Cl)cc3)o2)C[C@H]1C(=O)NCC(F)(F)F
2. COc1cncc(-c2cnc(C(C)(C)N3CCN(C[C@@H](O)C[C@@H](Cc4nnc(C)o4)C(=O)N[C@H]4CCOC[C@H]4O)[C@H](C(=O)NCC(F)(F)F)C3)o2)c1

Ans:
1. 31 nM
2. > 1000 nM

Go through the items and report each one's IC95.
1. CC(C)(C)NC(=O)[C@@H]1CN(Cc2cccnc2)CCN1C[C@@H](O)C[C@@H](Cc1ccccc1)C(=O)N[C@H]1c2ccccc2C[C@H]1O
2. CCCc1nnc(C[C@H](C[C@H](O)CN2CCN(C(C)(C)c3ncc(-c4ccc(Cl)cc4)o3)C[C@H]2C(=O)NCC(F)(F)F)C(=O)N[C@H]2CCOC[C@H]2O)o1
3. CCCc1nnc(C[C@H](C[C@H](O)CN2CCN(C(C)(C)c3ncc(-c4ccc(F)cc4)o3)C[C@H]2C(=O)NCC(F)(F)F)C(=O)N[C@H]2CCOC[C@H]2O)o1

Ans:
1: > 1000 nM; 2: ≤ 8 nM; 3: ≤ 8 nM
